All figures here come from PubChem BioAssay (NCATS).

Biological target: Rap guanine nucleotide exchange factor 3 (Homo sapiens) (UniProt O95398)
Sequence (O95398 whole entry, looked up): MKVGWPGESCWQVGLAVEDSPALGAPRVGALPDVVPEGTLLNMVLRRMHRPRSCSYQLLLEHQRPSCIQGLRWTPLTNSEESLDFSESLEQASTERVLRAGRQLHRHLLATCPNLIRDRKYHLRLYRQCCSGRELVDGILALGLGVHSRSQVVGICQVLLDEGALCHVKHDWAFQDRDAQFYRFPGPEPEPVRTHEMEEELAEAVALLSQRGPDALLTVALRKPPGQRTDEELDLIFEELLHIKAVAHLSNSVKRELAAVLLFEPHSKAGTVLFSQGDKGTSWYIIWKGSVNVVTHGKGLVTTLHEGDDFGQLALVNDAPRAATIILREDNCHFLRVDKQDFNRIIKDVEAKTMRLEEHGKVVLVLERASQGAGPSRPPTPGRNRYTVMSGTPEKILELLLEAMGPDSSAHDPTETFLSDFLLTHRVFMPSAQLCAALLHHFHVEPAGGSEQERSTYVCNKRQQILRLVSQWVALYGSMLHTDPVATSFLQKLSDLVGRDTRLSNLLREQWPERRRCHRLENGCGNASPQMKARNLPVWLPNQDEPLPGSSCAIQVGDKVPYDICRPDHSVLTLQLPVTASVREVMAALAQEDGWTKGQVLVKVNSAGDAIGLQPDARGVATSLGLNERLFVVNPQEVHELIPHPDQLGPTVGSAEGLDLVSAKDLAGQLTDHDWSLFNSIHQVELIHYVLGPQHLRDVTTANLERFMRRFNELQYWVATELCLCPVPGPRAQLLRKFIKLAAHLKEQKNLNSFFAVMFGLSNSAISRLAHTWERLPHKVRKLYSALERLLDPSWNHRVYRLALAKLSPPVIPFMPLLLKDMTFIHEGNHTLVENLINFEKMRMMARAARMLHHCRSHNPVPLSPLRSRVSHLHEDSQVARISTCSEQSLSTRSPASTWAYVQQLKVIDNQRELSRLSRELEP
Test: Counterscreen qHTS for antagonist of cAMP-regulated guanine nucleotide exchange factor 3 (EPAC1) (AID 1645888);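 further: fluorescence loss as bound BODIPY-GDP is released from Rap1B; % of control where 0% means no effect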
Settings: Rap1B-BODIPY-GDP nucleotide exchange, fluorescence; series mostly up to 154 µM
Excerpt: Assay Provider (PI): Xiaodong Cheng Ph.D. The University of Texas Medical Branch, […], TX MLPCN Grant: NS066510 In multi-cellular eukaryotic organisms, the effects of cAMP are transduced by two ubiquitously-expressed intracellular cAMP receptors, the classic protein kinase A/cAMP-dependent protein kinase (PKA/cAPK) and the more recently discovered exchange protein directly activated by cAMP/cAMP-regulated guanine nucleotide exchange factor (EPAC/cAMP-GEF). […]
Results filed as inconclusive are left out. Calls of active or inactive are those of the source. The call rests on the fitted dose curve; in most records, active means well fitted inhibition curve with a large enough effect; inconclusive means small, poorly fitted or top-dose-only effect; inactive means no such curve, though single readings can be large or run the other way.
assay_endpoint: activity change, negative = inhibition

# molecule, assay_endpoint, recorded_value
records = [
    ("COc1ccccc1C1SCCN1S(C)(=O)=O (stereo unspecified)", "activity change, negative = inhibition", "inactive"),
    ("Cc1ccc(-c2nc3ccc(Br)cn3c2Cc2ccccc2C(F)(F)F)cc1", "activity change, negative = inhibition", "inactive"),
    ("COC(=O)c1cc2oc(C)cc2n1Cc1ccc(Br)cc1F", "activity change, negative = inhibition", "inactive"),
    ("COc1ccccc1C(=O)NC(=O)COC(=O)C1CC1", "activity change, negative = inhibition", "inactive"),
    ("CC1(C(=O)NS(=O)(=O)c2ccc(Cl)s2)CCN1C(=O)C1(c2ccc(Cl)cc2)CCC1 (stereo unspecified)", "activity change, negative = inhibition", "inactive"),
]

Checklist item: activity change, negative = inhibition tested on Rap guanine nucleotide exchange factor 3 (Homo sapiens) (UniProt O95398), entry CCc1nc2c(OCc3ccc(C(=O)OC)cc3)cccn2c1N(C)C(=O)CC(C)C , value?
inactive

Similarly, COc1ccc(NC(=O)c2ccc(NC3=NC4CS(=O)(=O)CC4S3)cc2)cc1 (stereo unspecified) ?
-1.99% [at 30.8 µM] (inactive)

Similarly, COc1ccc(N2CCN(C(=O)c3noc4c3CCCCC4)CC2)cc1 ?
inactive

Similarly, COc1cccc(CN2CC(O)=C(c3nc(-c4ccc(Cl)cc4)cs3)C2=N)c1 ?
-19.7% [at 30.8 µM] (inactive)

Similarly, Cc1ccc(NC(=O)N2CCN(c3nnc(C)c4c(C)n(-c5ccc(Cl)cc5)nc34)CC2)c(C)c1 ?
inactive

Similarly, COc1ccc(OC)c(N=Cc2c(O)c3ccccc3oc2=O)c1 ?
inactive

---

molecular target: Rap guanine nucleotide exchange factor 3 (Homo sapiens) (UniProt O95398); experiment: Confirmatory qHTS for antagonist of cAMP-regulated guanine nucleotide exchange factor 3 (EPAC1) (AID 1645880); details: EPAC1 Rap1B-BODIPY-GDP exchange, fluorescence; series mostly up to 115 µM; further: nearly all actives have a fitted effect of over 55% in size
Inconclusive results are not listed. Active and inactive are the calls of the source. Calls come from the whole dose curve; as a rule, active = well fitted inhibition curve with a large enough effect; inconclusive = small, poorly fitted or top-dose-only effect; inactive = no such curve, though single readings can be large or run the other way.
Give your call using only these classes: active, inactive

Study these solved cases before continuing.
# compound, group
rows = [
    ("COc1ccccc1NC(=O)C(C)OC(=O)COc1cccc2c1OC(C)(C)C2 (stereo not given)", "inactive"),
    ("COc1ccc(/C=C(\\NC(=O)c2cccs2)C(=O)Nc2ccc(C)cc2)cc1OC", "active"),
    ("O=C(c1ccc2c(c1)N(Cc1ccccc1)CCS2)N1CCCCC1", "inactive"),
]

Returns: the outcome recorded for CCn1c2ccccc2c2nnc(SCC(=O)N(C)C3CCS(=O)(=O)C3)nc21 (stereo not given) in this assay.
inactive

Similarly, Cc1ccc(S(=O)(=O)/N=C2/NC(=O)/C(=C/c3ccccc3)S2)cc1 ?
active
